Recorded Minimal lethal dose for the following molecules
system: Sprague-Dawley rats; experiment: animal or person; settings: rats

>  <molecule>
C[C@H](c1ccccc1)n1nnc(Cl)c1C(=O)OC1CCC1 [Compound B70]

>  <reported_property>
Minimal lethal dose

>  <result>
>15 mg/kg

$$$$
>  <molecule>
C=CCOC(=O)c1c(I)nnn1[C@H](C)c1ccccc1 [Compound B136]

>  <reported_property>
Minimal lethal dose

>  <result>
>18 mg/kg

$$$$
>  <molecule>
CC(C)OC(=O)c1c(Br)nnn1[C@H](C)c1ccccc1 [Compound B115]

>  <reported_property>
Minimal lethal dose

>  <result>
>18 mg/kg

$$$$
>  <molecule>
C[C@H](c1ccccc1)n1nncc1C(=O)OCC1CC1 [Compound B7]

>  <reported_property>
Minimal lethal dose

>  <result>
>24 mg/kg

$$$$
>  <molecule>
C[C@H](c1ccccc1)n1nnc(Br)c1C(=O)OC1CC1 [Compound B116]

>  <reported_property>
Minimal lethal dose

>  <result>
>12 mg/kg

$$$$

Could you tell me which Minimal lethal dose is on file for C=C=CC1(OC(=O)c2c(F)nnn2[C@H](C)c2ccccc2)COC1 [Compound B35] ?
>8 mg/kg
